tested on: PDE5 (h) (ns); experiment: Enzyme assay PDE5 (h) (ns); assay type: biochemical, human
# Lookup of reported % Inhibition of Control Values @ 10 μM keyed by entry
Output spec: scalar in %, unitless text.

[
  {
    "COMPOUND": "CC1(C)C(=O)N(c2ccc(C#N)c(C(F)(F)F)c2)C(=S)N1c1ccc(C(N)=O)c(F)c1 [(MII)]",
    "SYSTEM_NAME": "PDE5 (h) (ns)",
    "TEST_VALUE": "−1"
  },
  {
    "COMPOUND": "CC1(C)C(=O)N(c2ccc(C#N)c(C(F)(F)F)c2)C(=S)N1c1ccc(C(=O)O)c(F)c1 [(MI)]",
    "SYSTEM_NAME": "PDE5 (h) (ns)",
    "TEST_VALUE": 4
  },
  {
    "COMPOUND": "CNC(=O)c1ccc(N2C(=O)N(c3ccc(C#N)c(C(F)(F)F)c3)C(=O)C2(C)C)cc1F [(MIV)]",
    "SYSTEM_NAME": "PDE5 (h) (ns)",
    "TEST_VALUE": 2
  }
]

For the next question, use this compound.
Given item CC1(C)C(=O)N(c2ccc(C#N)c(C(F)(F)F)c2)C(=O)N1c1ccc(C(N)=O)c(F)c1 [(MIII)] , the value recorded as its % Inhibition of Control Values @ 10 μM is 8
